I'd appreciate it if you could supply IC50 values for the items below.
methodNotes: Cytotoxicity using Vero cells
testSettings: African green monkey, Vero cells
Reply numerically in µg/mL, unit not repeated.

Incoming: What IC50 value was documented for this compound, COc1ncccc1Nc1cc2nc3ccccc3n(-c3ccc(F)c(F)c3)c-2cc1=NC1CC1 [Compound 16] ?
Outgoing: 25.5

Incoming: Another compound: COc1ncccc1Nc1cc2nc3ccccc3n(-c3cccc(F)c3)c-2cc1=NC(C)C [Compound 8]
Outgoing: 2.65

Incoming: Another compound: COc1ncccc1Nc1cc2nc3ccccc3n(-c3cccc(Cl)c3)c-2cc1=NC(C)C [Compound 10]
Outgoing: 5.1

Incoming: Another compound: CC(C)/N=c1\cc2n(-c3ccc(Cl)cc3)c3ccccc3nc-2cc1Nc1ccc(Cl)cc1 [CFZ, Clofazimine, reference compound]
Outgoing: 68.6

Incoming: Another compound: COc1ncccc1Nc1cc2nc3ccccc3n(-c3cccc(Cl)c3)c-2cc1=NC1CCCCC1 [Compound 13]
Outgoing: 53.3

###

I'd appreciate it if you could supply melting point values for the items below.

Incoming: What melting point value was documented for this compound, `COc1ncccc1Nc1cc2nc3ccccc3n(-c3ccc(F)c(F)c3)c-2cc1=NC1CCCCC1` ?
Outgoing: 218 to 219 °C

Incoming: Another compound: COc1ncccc1Nc1cc2nc3ccccc3n(-c3ccc(Cl)c(Cl)c3)c-2cc1=NC1CCC(OC)CC1 (stereo not shown)
Outgoing: 215 to 217 °C

Incoming: Another compound: `COc1ncccc1Nc1cc2nc3ccccc3n(-c3ccc(F)c(F)c3)c-2cc1=NC1CC1`
Outgoing: 213 to 214 °C

Incoming: Another compound: `COc1ncccc1Nc1cc2nc3ccccc3n(-c3cccc(Cl)c3)c-2cc1=NC1CCCCC1`
Outgoing: 197 to 201 °C

Incoming: Another compound: `COc1ncccc1Nc1cc2nc3ccccc3n(-c3cccc(Cl)c3)c-2cc1=NC1CC1`
Outgoing: 211 to 214 °C

Incoming: Another compound: COc1ncccc1Nc1cc2nc3ccccc3n(-c3ccc(F)c(F)c3)c-2cc1=NC1CCC(OC)CC1 (stereo not shown)
Outgoing: 214 to 215 °C

Incoming: Another compound: `COc1ncccc1Nc1cc2nc3ccccc3n(-c3cccc(Cl)c3)c-2cc1=NC1CCC1`
Outgoing: 205 to 208 °C

Incoming: Another compound: `COc1ncccc1Nc1cc2nc3ccccc3n(-c3cccc(Cl)c3)c-2cc1=NC(C)C`
Outgoing: 215 to 217 °C

Incoming: Another compound: `COc1ncccc1Nc1cc2nc3ccccc3n(-c3cccc(F)c3)c-2cc1=NC(C)C`
Outgoing: 198 to 199 °C

Incoming: Another compound: `COc1ncccc1Nc1cc2nc3ccccc3n(-c3ccc(Cl)c(Cl)c3)c-2cc1=NC1CCOCC1`
Outgoing: 232 to 233 °C

Incoming: Another compound: `COc1ncccc1Nc1cc2nc3ccccc3n(-c3ccc(F)c(F)c3)c-2cc1=NC1CCOCC1`
Outgoing: 255 to 256 °C

Incoming: Another compound: `COc1ncccc1Nc1cc2nc3ccccc3n(-c3ccc(Cl)c(Cl)c3)c-2cc1=NC1CCC1`
Outgoing: 216 to 219 °C

Incoming: Another compound: `COc1ncccc1Nc1cc2nc3ccccc3n(-c3ccc(Cl)c(Cl)c3)c-2cc1=NC(C)C`
Outgoing: 245 to 247 °C

Incoming: Another compound: `COc1ncccc1Nc1cc2nc3ccccc3n(-c3cccc(Cl)c3)c-2cc1=NC1CCOCC1`
Outgoing: 203 to 206 °C

Incoming: Another compound: `COc1ncccc1Nc1cc2nc3ccccc3n(-c3cccc(F)c3)c-2cc1=NC1CCOCC1`
Outgoing: 190 to 191 °C

Incoming: Another compound: `COc1ncccc1Nc1cc2nc3ccccc3n(-c3ccc(F)c(F)c3)c-2cc1=NC1CCC1`
Outgoing: 200 to 201 °C
